Cited source for all entries: PubChem BioAssay (NCI)

For each entry below, report its TGI value.
Tested on: LOX IMVI melanoma
Measurement notes: NCI tumour cell line growth inhibition, 48 h

Example cases with answers are listed next.
Compound: Nc1ccn(C2CC(O)C(COP(O)(=S)OC3CC(n4ccc(N)nc4=O)OC3CO)O2)c(=O)n1 (stereo unspecified)
Quantity measured: TGI
Endpoint result: > 100 µM

Compound: Cn1c(=O)c2[nH]c(/N=N/N3CCN(CCO)CC3)nc2n(C)c1=O
Quantity measured: TGI
Endpoint result: > 100 µM

Compound: COc1ccc(/C=C2\OC(=O)C(Cl)=C2c2ccc(OC)cc2)cc1
Quantity measured: TGI
Endpoint result: > 100 µM

Compound: Oc1ccccc1/C=N/Nc1nnc2c3ccccc3c3ccccc3c2n1
Quantity measured: TGI
Endpoint result: > 100 µM

Compound: CN(C)c1ccc2nc3ccc(=[N+](C)C)cc-3oc2c1
Quantity measured: TGI
Endpoint result: 9.28 µM

Compound: CC(C)=CCCC1(C)C=Cc2c(c(C)cc3c2[nH]c2cc(O)ccc23)O1 (stereo unspecified)
Quantity measured: TGI
Endpoint result: > 25 µM

I need TGI for every entry listed below, if you could help.
1. c1ccc2nc(Cn3c[n+](Cc4ccc5ccccc5n4)c4ccccc43)ccc2c1
2. CC1=NC(=O)C(C)(c2ccccc2)N1CCc1ccccc1 (stereo unspecified)

["7.8 µM", "> 100 µM"]
